# inhibition annotations
assay: HepG2 cytotoxicity, primary screen, cytotoxicity control for P. falciparum antimalarial project, cell-based, ATP luminescence (AID 2303); conditions: HepG2 viability, 24-48 h, at 10 µM, stronger effect = higher value;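 also: 0% = DMSO wells and 100% = digitonin-killed cells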
Report the value in % with no unit label.

Input line: Need inhibition of CN(c1ccnc(Nc2ccc(CS(C)(=O)=O)cc2)n1)C1CCN(Cc2ccccc2)CC1 , thanks.
Output line: 10

Input line: Request the reported inhibition associated with CCCCCc1cc(O)c2c3c(c(=O)oc2c1)CN(C)CC3
Output line: 4

Input line: What measured inhibition goes with Cc1[nH]c2cc(Cl)ccc2c1C1=CCN(CCN2CCOc3c(Br)cccc3C2=O)CC1 ?
Output line: 1

Kindly consider the entry below.
Input line: Look at this molecule and give its reported inhibition. COC(=O)/C=C/c1ccc(CC(C)NCC(O)c2cccc(Cl)c2)cc1 (centres undefined)
Output line: 2
